- assay.text: method code SF-GLC, from DOI: 10.1016/s0021-9673(00)91779-5
- conditions.used: pH 7.0
measured.property: logD
Give the value as a plain number.

# compound, logD
measured = [
    ("CCOP(=S)(Oc1ccccc1)c1ccccc1 (configuration not stated)", 1.79),
]

Consider the record given below.
stdin: Consider the compound CCOP(=S)(Oc1ccc(C)cc1)c1ccccc1 (configuration not stated) and give its measured logD.
stdout: 2.22

---

- assay.text: method code SF-AS, from DOI: 10.1002/ardp.19853180604, PMID: 4026543
- conditions.used: pH 7.4
measured.property: logD
Give the value as a plain number.

# substance.smiles, logD
measured = [
    ("Cc1nc2ccccc2c(=O)n1N=C1SCC(=O)N1c1ccc(Cl)cc1", -1.6),
    ("Cc1nc2ccccc2c(=O)n1N=C1SCC(=O)N1c1ccc(Br)cc1", -1.26),
]

Consider the record given below.
stdin: Consider the molecule Cc1nc2ccccc2c(=O)n1N=C1SCC(=O)N1c1ccccc1 and give its measured logD.
stdout: -1.06
